# Target Desc: E. coli respiratory complex I (proton-pumping NADH:ubiquinone oxidoreductase, NuoA to NuoN) (Escherichia coli, UniProt P0AFC7+P0AFD4+P33599, P33599:D325E)
Assay Metric: pIC50
// scale note: pIC50 = -log10(conc_M); give the bare number

Ask: Which pIC50 is reported for this compound? C/C=C(\C)[C@H](O)[C@H](C)/C=C(C)/C=C/C/C(C)=C/Cc1nc(OC)c(OC)c(O)c1C
Result: 5.21

---

# Target Desc: E. coli respiratory complex I (proton-pumping NADH:ubiquinone oxidoreductase, NuoA to NuoN) (Escherichia coli, UniProt P0AFC7+P0AFD4+P33599, P33599:D325N)
Assay Metric: IC50 (µM)
Supply the numeric figure in µM, leaving out any unit text.

Ask: Which IC50 is reported for this molecule? C/C=C(\C)[C@H](O)[C@H](C)/C=C(C)/C=C/C/C(C)=C/Cc1nc(OC)c(OC)c(O)c1C
Result: 17.4

---

# Target Desc: E. coli respiratory complex I (proton-pumping NADH:ubiquinone oxidoreductase, NuoA to NuoN) (Escherichia coli, UniProt P0AFC7+P0AFD4+P33599, P33599:D325Q)
Assay Metric: pIC50
// scale note: pIC50 = -log10(conc_M); give the bare number

Ask: Which pIC50 is reported for this molecule? C/C=C(\C)[C@H](O)[C@H](C)/C=C(C)/C=C/C/C(C)=C/Cc1nc(OC)c(OC)c(O)c1C
Result: 4.77

---

# Target Desc: E. coli respiratory complex I (proton-pumping NADH:ubiquinone oxidoreductase, NuoA to NuoN) (Escherichia coli, UniProt P0AFC7+P0AFD4+P33599)
Assay Metric: IC50 (µM)
Supply the numeric figure in µM, leaving out any unit text.

Ask: Which IC50 is reported for this molecule? C/C=C(\C)[C@H](O)[C@H](C)/C=C(C)/C=C/C/C(C)=C/Cc1nc(OC)c(OC)c(O)c1C
Result: 3.5
